System: Mus musculus
ASSAY OVERVIEW: Anticonvulsant activity against maximal electroshock-induced seizures in ip dosed albino mouse assessed as time of peak effect
Type: functional
molecules and their reported Time
PROPERTY LABEL: Time (h)

INSERT INTO measurements (molecule, target, observed_result) VALUES
  ('C#CCOC[C@@H](NC(C)=O)C(=O)NCc1ccc(N=C=S)cc1', 'Mus musculus', 1),
  ('CC(=O)N[C@H](COCCN=C=S)C(=O)NCc1ccccc1', 'Mus musculus', 0.5),
  ('C#Cc1ccc(CNC(=O)[C@@H](COC)NC(C)=O)cc1', 'Mus musculus', 0.5),
  ('CC(=O)N[C@H](CO)C(=O)NCc1ccc(N=C=S)cc1', 'Mus musculus', 0.5),
  ('CCCC(CCC)C(=O)[O-].[Na+] [VALPROATE SODIUM]', 'Mus musculus', 0.25),
  ('O=C1NC(=O)C(c2ccccc2)(c2ccccc2)N1 [PHENYTOIN]', 'Mus musculus', 2),
  ('C#CCOC[C@@H](NC(C)=O)C(=O)NCc1ccccc1', 'Mus musculus', 0.25),
  ('CCC1(c2ccccc2)C(=O)NC(=O)NC1=O [PHENOBARBITAL]', 'Mus musculus', 1),
  ('CC(=O)N[C@@H](COCCN=[N+]=[N-])C(=O)NCc1ccc(N=C=S)cc1', 'Mus musculus', 0.25),
  ('C#Cc1ccc(CNC(=O)[C@H](COC)NC(C)=O)cc1', 'Mus musculus', 0.5),
  ('COC[C@@H](NC(C)=O)C(=O)NCc1ccccc1 [LACOSAMIDE]', 'Mus musculus', 0.5);

These measurements were taken from ChEMBL document CHEMBL1156246.
